Known pKi of a selection of compounds
Study target: Mcl-1 (Homo sapiens (Human), UniProt Q07820)
Sequence (Q07820 172-327): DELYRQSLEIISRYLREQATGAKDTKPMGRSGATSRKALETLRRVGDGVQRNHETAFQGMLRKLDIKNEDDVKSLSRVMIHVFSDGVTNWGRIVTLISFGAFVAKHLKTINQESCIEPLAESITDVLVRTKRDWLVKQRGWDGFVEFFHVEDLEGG
Experiment: Fluorescence polarization anisotropy (FPA) competition assay, FITC-Bak or FITC-Bim BH3 peptide
Format: binding
Condition notes: read-out: Ki for Inhibition of Mcl-1 by FPA assay
When answering, recall that pKi equals minus log10 of the concentration in mol/L, and write that number alone.

Cc1cc(OCCCc2c3n(c4c(-c5c(C)nn(CCN6CCCC6)c5C)c(Cl)ccc24)[C@H](C)CN(c2cn(C)c4cc(C(=O)O)ccc24)C3=O)cc(C)c1Cl :: 8.89
Cc1cc(OCCCc2c3n(c4c(-c5c(C)n[nH]c5C)c(Cl)ccc24)[C@H](C)CN(c2cn(C)c4c(C)cc(C(=O)O)cc24)C3=O)cc(C)c1Cl :: 8.96
Cc1cc(OCCCc2c3n(c4c(-c5c(C)nn(C)c5C)c(Cl)ccc24)[C@H](C)CN(c2ccc4c(C(=O)O)cccc4n2)C3=O)cc(C)c1Cl :: 8.60

**Q:** Look up pKi of Cc1cc(OCCCc2c3n(c4c(-c5c(C)nn(C)c5C)c(Cl)ccc24)[C@H](C)CN(c2cnc4ccc(C(=O)O)cn24)C3=O)cc(C)c1Cl and report it.
**A:** 8.39

**Q:** Consider the compound COc1ccc(N2C[C@@H](C)n3c(c(CCCOc4cc(C)c(Cl)c(C)c4)c4ccc(Cl)c(-c5c(C)nn(C)c5C)c43)C2=O)c2c1cc(C(N)=O)n2C . State its measured pKi.
**A:** 8.89
